Attribution: patent US20260125382A1

# system.name: CDK9 (Homo sapiens, UniProt P50750)
# Construct: endogenous in cells; host or cells: MDA-MB-231
# Sequence (P50750 whole entry): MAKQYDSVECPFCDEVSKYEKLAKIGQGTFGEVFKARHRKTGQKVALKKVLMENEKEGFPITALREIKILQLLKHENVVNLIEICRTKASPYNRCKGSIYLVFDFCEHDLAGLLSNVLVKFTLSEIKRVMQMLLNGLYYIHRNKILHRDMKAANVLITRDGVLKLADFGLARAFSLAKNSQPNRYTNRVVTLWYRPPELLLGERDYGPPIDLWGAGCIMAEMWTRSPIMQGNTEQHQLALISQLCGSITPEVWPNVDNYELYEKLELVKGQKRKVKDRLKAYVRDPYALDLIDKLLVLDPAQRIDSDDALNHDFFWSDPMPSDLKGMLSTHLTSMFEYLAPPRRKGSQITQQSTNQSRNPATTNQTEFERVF
# protocol.details: CDK protein degradation activity (Western blotting), CDK9
# Type: cell-based
# condition.info: MDA-MB-231 cells, 1 μM, 16 hours, Western blot
measure: Enzyme degradation CDK9 (% remaining) @ 1 μM

Worked set:
>>> observed("Cc1cccc(C(=O)NC2CC(n3cnc4c(NCCCN5CCN(CC6CCN(C(=O)CNc7cccc8c7C(=O)N([C@@H]7CCC(=O)NC7=O)C8=O)CC6)CC5)ncnc43)C2)n1 (stereo partly drawn) [Compound 143]")
"0/0/0%"
>>> observed("O=C1CCC(N2C(=O)c3ccc(N4CCC(OCCN5CCN(c6ccc(Nc7ncnc8c7ncn8[C@H]7C[C@@H](NC(=O)Cc8ccccc8)C7)cc6)CC5)CC4)cc3C2=O)C(=O)N1 (stereo partly drawn) [Compound 252]")
"60/60/60%"

Would you mind listing Enzyme degradation CDK9 (% remaining) @ 1 μM for each of the following molecules?
1. O=C1CC[C@H](N2C(=O)c3cc(F)c(N4CCC(C(=O)N5CCC(CN6CCN(c7ccc(Nc8ncnc9c8ncn9[C@H]8C[C@@H](NC(=O)c9cccc(C(F)(F)F)n9)C8)cc7)CC6)CC5)CC4)cc3C2=O)C(=O)N1 [Compound 471]
2. O=C1CCC(N2C(=O)c3cccc(OCC(=O)N4CCC5(CC4)CC(N4CCC(c6ccc(Nc7ncnc8c7ncn8[C@H]7C[C@@H](NC(=O)Cc8ccccc8)C7)cc6)CC4)C5)c3C2=O)C(=O)N1 (stereo partly drawn) [Compound 293]
3. O=C1CCC(N2C(=O)c3ccc(NCC(=O)N4CCC(CN5CCC(CNc6ncnc7c6ncn7[C@H]6C[C@@H](NC(=O)Cc7ccccc7)C6)CC5)CC4)cc3C2=O)C(=O)N1 (stereo partly drawn) [Compound 185]
4. O=C1CC[C@H](N2C(=O)c3cc(F)c(N4CCC(CCN5CCN(c6ccc(Nc7ncnc8c7ncn8C7CC(NC(=O)Cc8ccccc8)C7)cc6)CC5)CC4)cc3C2=O)C(=O)N1 (stereo partly drawn) [Compound 323]

1: 0/0/0%; 2: 0/0/0%; 3: 0/0/0%; 4: 0/0/0%

###

# system.name: CDK2 (Homo sapiens, UniProt P24941)
# Construct: endogenous in cells; host or cells: MDA-MB-231
# protocol.details: CDK protein degradation activity (Western blotting), CDK2
# Type: cell-based
# condition.info: MDA-MB-231 cells, 10 μM, 16 hours, Western blot
measure: Enzyme degradation CDK2 (% remaining) @ 10 μM (%)
Give bare numbers, in %.

>>> observed("Cc1cccc(C(=O)N[C@H]2C[C@@H](n3cnc4c(NCc5ccc(OCC6CCN(C(=O)COc7ccc8c(c7)C(=O)N([C@H]7CCC(=O)NC7=O)C8=O)CC6)cc5)ncnc43)C2)n1 [Compound 106]")
50

Now look at this entry.
Enzyme degradation CDK2 (% remaining) @ 10 μM for Cc1cccc(C(=O)N[C@H]2C[C@@H](n3cnc4c(NCc5cccc(OCC6CCN(C(=O)CNc7ccc8c(c7)C(=O)N(C7CCC(=O)NC7=O)C8=O)CC6)c5)ncnc43)C2)n1 (stereo partly drawn) [Compound 96] ?
50

###

Give Enzyme degradation CDK9 (% remaining) @ 10 μM for every item shown.
# system.name: CDK9 (Homo sapiens, UniProt P50750)
# Construct: endogenous in cells; host or cells: MDA-MB-231
# protocol.details: CDK protein degradation activity (Western blotting), CDK9
# Type: cell-based
# condition.info: MDA-MB-231 cells, 10 μM, 16 hours, Western blot

Worked set:
>>> observed("O=C1CC[C@H](N2C(=O)c3cccc(N4CCC(CN5CCN(c6ccc(Nc7ncnc8c7ncn8C7CC(NC(=O)Cc8ccccc8)C7)cc6)CC5)CC4)c3C2=O)C(=O)N1 (some centres unmarked)")
"0%"
>>> observed("O=C1CC[C@H](N2C(=O)c3cc(F)c(N4CCC(CN5CCN(c6ccc(Nc7ncnc8c7ncn8C7CC(NC(=O)c8cccc(C(F)(F)F)n8)C7)cc6)CC5)CC4)cc3C2=O)C(=O)N1 (some centres unmarked)")
"10/10/10%"
>>> observed("O=C1CC[C@H](N2C(=O)c3ccc(N4CCC(C(=O)N5CCC(CCN6CCN(c7ccc(Nc8ncnc9c8ncn9C8CC(NC(=O)c9c(Cl)cccc9Cl)C8)cc7)CC6)CC5)CC4)cc3C2=O)C(=O)N1 (some centres unmarked)")
"10/10/10%"
>>> observed("O=C1CCC(c2ccc(OCC(=O)N3CCC(CCN4CCN(c5ccc(Nc6ncnc7c6ncn7[C@H]6C[C@@H](NC(=O)c7c(Cl)cccc7Cl)C6)cc5)CC4)CC3)cc2)C(=O)N1 (some centres unmarked)")
"10/10/10%"

Now look at this entry.
What reported Enzyme degradation CDK9 (% remaining) @ 10 μM corresponds to O=C1CCC(N2C(=O)c3cccc(OCC(=O)N4CCC5(CC4)CC(N4CCC(c6ccc(Nc7ncnc8c7ncn8[C@H]7C[C@@H](NC(=O)Cc8ccccc8)C7)cc6)CC4)C5)c3C2=O)C(=O)N1 (some centres unmarked) on CDK9 (Homo sapiens, UniProt P50750)?
0/0/0%

###

# system.name: CDK2 (Homo sapiens, UniProt P24941)
# Construct: endogenous in cells; host or cells: MDA-MB-231
# protocol.details: CDK protein degradation activity (Western blotting), CDK2
# Type: cell-based
# condition.info: MDA-MB-231 cells, 1 μM, 16 hours, Western blot
Give Enzyme degradation CDK2 (% remaining) @ 1 μM for every item shown.

>>> observed("O=C1CC[C@H](N2C(=O)c3ccc(N4CCC(C(=O)N5CCN(C6CCN(c7ccc(Nc8ncnc9c8ncn9C8CC(NC(=O)Cc9ccccc9)C8)cc7)CC6)CC5)CC4)cc3C2=O)C(=O)N1 (stereo partly drawn)")
"60/60/60%"
>>> observed("O=C1CC[C@H](N2C(=O)c3ccc(N4CC(C(=O)N5CCC(N6CCN(c7ccc(Nc8ncnc9c8ncn9[C@H]8C[C@@H](NC(=O)Cc9ccccc9)C8)cc7)CC6)CC5)C4)cc3C2=O)C(=O)N1")
"0/0/0%"
>>> observed("O=C1CC[C@H](N2C(=O)c3ccc(N4CC(C(=O)N5CCN(C6CN(c7ccc(Nc8ncnc9c8ncn9[C@H]8C[C@@H](NC(=O)Cc9ccccc9)C8)cc7)C6)CC5)C4)cc3C2=O)C(=O)N1")
"30/30/30%"
>>> observed("O=C1CC[C@H](N2C(=O)c3ccc(NCC(=O)N4CCN(CC5CCN(c6ccc(Nc7ncnc8c7ncn8[C@H]7C[C@@H](NC(=O)c8c(Cl)cccc8Cl)C7)cc6)CC5)CC4)cc3C2=O)C(=O)N1")
"10/10/10%"
>>> observed("O=C1CC[C@H](N2C(=O)c3ccc(N4CCC(CCCN5CCN(c6ccc(Nc7ncnc8c7ncn8C7CC(NC(=O)Cc8ccccc8)C7)cc6)CC5)CC4)cc3C2=O)C(=O)N1 (stereo partly drawn)")
"90%"

Would you mind listing Enzyme degradation CDK2 (% remaining) @ 1 μM for each of the following compounds?
1. O=C1CCC(c2ccc(OCC(=O)N3CCC4(CC3)CC(N3CCN(c5ccc(Nc6ncnc7c6ncn7[C@H]6C[C@@H](NC(=O)Cc7ccccc7)C6)cc5)CC3)C4)cc2)C(=O)N1 (stereo partly drawn)
2. Cc1cccc(C(=O)NC2CC(n3cnc4c(Nc5ccc(N6CCN(CCC7CCN(C(=O)C8CCN(c9cc%10c(cc9F)C(=O)N([C@H]9CCC(=O)NC9=O)C%10=O)CC8)CC7)CC6)cc5)ncnc43)C2)n1 (stereo partly drawn)
3. O=C1CC[C@@H](c2ccc(OCC(=O)N3CCC(CN4CCN(c5ccc(Nc6ncnc7c6ncn7[C@H]6C[C@@H](NC(=O)c7c(Cl)cccc7Cl)C6)cc5)CC4)CC3)cc2)C(=O)N1
4. O=C1CC[C@H](N2C(=O)c3cccc(OCC(=O)N4CCC(CN5CCC(c6ccc(Nc7ncnc8c7ncn8[C@H]7C[C@@H](NC(=O)Cc8ccccc8)C7)cc6)CC5)CC4)c3C2=O)C(=O)N1

30/30/30%
40%
40%
0/0/0%

###

# system.name: CDK9 (Homo sapiens)
# Construct: endogenous in cells; host or cells: MDA-MB-231
# protocol.details: CDK protein degradation activity (Western blotting), CDK9
# Type: cell-based
# condition.info: MDA-MB-231 cells, 1 μM, 16 hours, Western blot
Give Enzyme degradation CDK9 (% remaining) @ 1 μM for every item shown.

Worked set:
>>> observed("O=C1CC[C@H](N2C(=O)c3cccc(OCC(=O)N4CCC(CN5CCC(c6ccc(Nc7ncnc8c7ncn8[C@H]7C[C@@H](NC(=O)Cc8ccccc8)C7)cc6)CC5)CC4)c3C2=O)C(=O)N1")
"0/0/0%"
>>> observed("O=C1CC[C@H](N2C(=O)c3ccc(NCC(=O)N4CCC5(CC4)CC(N4CCN(c6ccc(Nc7ncnc8c7ncn8C7CC(NC(=O)c8c(Cl)cccc8Cl)C7)cc6)CC4)C5)cc3C2=O)C(=O)N1 (stereo partly drawn)")
"0/0/0%"

Now look at this entry.
Enzyme degradation CDK9 (% remaining) @ 1 μM for O=C1CC[C@H](N2C(=O)c3ccc(N4CCC(C(=O)N5CCC(CN6CCN(c7ccc(Nc8ncnc9c8ncn9C8CC(NC(=O)c9cccc(F)n9)C8)cc7)CC6)CC5)CC4)cc3C2=O)C(=O)N1 (stereo partly drawn) ?
0/0/0%
